meta.source: patent US20250382344A1

STUDY_TARGET: human GLP-1 receptor (human, UniProt P43220 24-463)
ASSAY_NAME: cell-based or functional assay
Give EC50, CreLuc reporter, 100% hP for every item shown.
Your answer should be a plain number; it is taken to be in nM.

In: Give EC50, CreLuc reporter, 100% hP for the following binder: YXEGEFTSDYSIXLEKQAQXAFVRHLINKXTRQRY (Aib at 2, 13, 20, 30; Lys29 epsilon-amino acylated with C18DA-gGlu-gGlu-gGlu-gGlu-gGlu-gGlu-eLys; C-terminal amide) [Compound 54]
Out: 14.4

In: Note down EC50, CreLuc reporter, 100% hP recorded for YXEGTFTSDYSIXLEKQAQXAFVRHLINKLTRQRY (Aib at 2, 13, 20; Lys29 epsilon-amino acylated with C18DA-gGlu-gGlu-gGlu-gGlu-gGlu-OEG; C-terminal amide) [Compound 7]
Out: 7.9

In: Complete the entry with EC50, CreLuc reporter, 100% hP for YXEGTFTSDYSIXLDKQAQXAFVRHLINKXTRQRY (Aib at 2, 13, 20, 30; Lys29 epsilon-amino acylated with C20DA-gGlu-gGlu-gGlu-gGlu-gGlu-gGlu-eLys; C-terminal amide) [Compound 74]
Out: 3.3
